Biological target: HaloTag-ING2 PHD (mouse Ing2 200-280)
Experiment: peptide microarray binding signal (635 nm), min-max normalized on array (fraction of array maximum); higher = stronger binding
Conditions: peptide region: Unmod H1 variant; binder concentration: 10 nM
measuredQuantity: peptide microarray binding signal
Output: the number by itself.

# binder ASAAPEKPLAGKK [Unmod H1 variant A S A A P E K P L A G K K] ; its peptide microarray binding signal = 0.00603

# binder KKAPKSPAKAKAV [Unmod H1 variant K K A P K S P A K A K A V] ; its peptide microarray binding signal = 0.00412

# binder PKKAKKPAAAAGA [Unmod H1 variant P K K A K K P A A A A G A] ; its peptide microarray binding signal = 0.00322

# binder GVSLAALKKALAA [Unmod H1 variant G V S L A A L K K A L A A] ; its peptide microarray binding signal = 0.00621
